Listed next: entries and their corresponding pIC50.
tested on: MOR; test: Guinea pig isolated ileum (GPI) functional assay; type: cell-based; conditions: agonist activity, electrically stimulated tissue; read-out: GPI (MOR) IC50
Non-standard residues stand in square brackets, D forms with d. Residues, ends and D or L forms follow the SMILES beside them. *: point of attachment. NH(3,5-(CF3)2-benzyl) = FC(F)(F)c1cc(CN*)cc(C(F)(F)F)c1; NMePhe(4-F) = CN[C@@H](Cc1ccc(F)cc1)C(=O)O; Dmt = Cc1cc(O)cc(C)c1C[C@H](N)C(=O)O; NMeF = CN[C@@H](Cc1ccccc1)C(=O)O
Please keep in mind that pIC50 is minus log10 of the molar concentration; only the number is needed.

- compound: "Cc1cc(O)cc(C)c1C[C@H](N)C(=O)N[C@H](C)C(=O)NCC(=O)N[C@@H](Cc1ccc(Cl)cc1)C(=O)N1CCC[C@H]1C(=O)N[C@@H](CC(C)C)C(=O)N[C@@H](Cc1c[nH]c2ccccc12)C(=O)NCc1cc(C(F)(F)F)cc(C(F)(F)F)c1"
  pIC50: 6.78
- compound: "Cc1cc(O)cc(C)c1C[C@H](N)C(=O)N[C@H](C)C(=O)NCC(=O)N(C)[C@@H](Cc1ccccc1)C(=O)N[C@@H](CO)C(=O)N1CCC[C@H]1C(=O)N[C@@H](CC(C)C)C(=O)N[C@@H](Cc1c[nH]c2ccccc12)C(=O)NCc1cc(C(F)(F)F)cc(C(F)(F)F)c1 [AKG132] (H-[Dmt][dA]G[NMeF]SPLW-{NH(3,5-(CF3)2-benzyl)})"
  pIC50: 7.37
- compound: "Cc1cc(O)cc(C)c1C[C@H](N)C(=O)N[C@H](C)C(=O)NCC(=O)N(C)[C@@H](Cc1ccc(F)cc1)C(=O)N[C@@H](CO)C(=O)N1CCC[C@H]1C(=O)N[C@@H](CC(C)C)C(=O)N[C@@H](Cc1c[nH]c2ccccc12)C(=O)NCc1cc(C(F)(F)F)cc(C(F)(F)F)c1 [AKG135] (H-[Dmt][dA]G[NMePhe(4-F)]SPLW-{NH(3,5-(CF3)2-benzyl)}; N-terminus assumed)"
  pIC50: 7.64

### Prompt What does the data say about its pIC50? Entry: CC(C)C[C@H](NC(=O)[C@@H]1CCCN1C(=O)CNC(=O)[C@H](Cc1ccccc1)N(C)C(=O)CNC(=O)[C@@H](C)NC(=O)[C@@H](N)Cc1ccc(O)cc1)C(=O)N[C@@H](Cc1c[nH]c2ccccc12)C(=O)NCc1cc(C(F)(F)F)cc(C(F)(F)F)c1 [AKG113] (H-Y[dA]G[NMeF]GPLW-{NH(3,5-(CF3)2-benzyl)})
### Response 7.10
